Molecular target: T1, recombinant human IL-31 (hIL-31, BHK produced, A1277F, zcytor17lig CEE) (human, UniProt Q6EBC2 24-164)
T1 construct: also called recombinant hIL-31
T1 sequence: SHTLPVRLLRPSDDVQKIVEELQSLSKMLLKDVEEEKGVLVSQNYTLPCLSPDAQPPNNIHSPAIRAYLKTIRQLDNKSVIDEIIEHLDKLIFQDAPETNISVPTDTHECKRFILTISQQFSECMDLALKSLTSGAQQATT
Experiment: SPR (Biacore), mAb amine-coupled to CM5 chip, hIL-31 injected
readout.label: koff (s⁻¹)
Write the answer as a number in s⁻¹, unit excluded.

humanized 292.12.3.1 construct clone 31 (12VH1-gly + HC(F29L, M69L, R71A, V78A, R94F) + LC(F71Y)) (antibody, human IgG4, V domains shown) VH: QVQLVQSGAEVKKPGASVKVSCKASGYTLTRYWMQWVRQAPGQGLEWMGAIYPGDGDTRYSQKFQGRVTLTADTSISTAYMELSSLRSEDTAVYYCAFPDGYYAAPYGMDYWGQGTLVTVSS VL: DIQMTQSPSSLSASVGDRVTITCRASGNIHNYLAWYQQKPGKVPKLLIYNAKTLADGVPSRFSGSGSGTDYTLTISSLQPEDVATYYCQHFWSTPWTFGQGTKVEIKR    7e-05

Lookup: State the recorded koff for this entry: humanized 292.12.3.1 construct clone 8 (12VH5-gly + fback) (antibody, human IgG4, V domains shown, also called 08) VH: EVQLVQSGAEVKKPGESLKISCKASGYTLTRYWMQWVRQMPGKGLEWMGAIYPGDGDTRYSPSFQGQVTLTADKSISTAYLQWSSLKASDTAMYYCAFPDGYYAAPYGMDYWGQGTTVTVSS VL: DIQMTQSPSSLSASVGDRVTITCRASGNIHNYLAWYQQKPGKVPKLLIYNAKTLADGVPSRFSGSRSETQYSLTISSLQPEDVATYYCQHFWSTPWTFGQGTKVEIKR
Found: 5.4e-05

Lookup: Same question, humanized 292.12.3.1 construct clone 9 (12VH1-gly + HC(fback)) (antibody, human IgG4, V domains shown, also called 09) VH: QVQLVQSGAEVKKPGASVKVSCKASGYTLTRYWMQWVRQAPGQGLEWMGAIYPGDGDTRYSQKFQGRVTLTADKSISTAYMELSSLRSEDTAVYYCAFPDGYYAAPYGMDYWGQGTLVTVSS VL: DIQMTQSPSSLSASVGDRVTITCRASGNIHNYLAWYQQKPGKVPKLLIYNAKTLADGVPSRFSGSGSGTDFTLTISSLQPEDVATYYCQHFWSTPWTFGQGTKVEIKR this time
Found: 9e-05

Lookup: Input humanized 292.12.3.1 construct clone 14 (12VH1-gly + HC(M69L, R71A, T73K, V78A, R94F) + LC(fback)) (antibody, human IgG4, V domains shown) VH: QVQLVQSGAEVKKPGASVKVSCKASGYTFTRYWMQWVRQAPGQGLEWMGAIYPGDGDTRYSQKFQGRVTLTADKSISTAYMELSSLRSEDTAVYYCAFPDGYYAAPYGMDYWGQGTLVTVSS VL: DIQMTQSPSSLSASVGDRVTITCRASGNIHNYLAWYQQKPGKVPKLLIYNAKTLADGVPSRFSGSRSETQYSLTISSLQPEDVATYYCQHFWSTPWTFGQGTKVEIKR
Found: 0.00073

Lookup: Then this binder: humanized 292.12.3.1 construct clone 32 (12VH1-gly + HC(F29L, R71A, V78A, R94F) + LC(F71Y)) (antibody, human IgG4, V domains shown) VH: QVQLVQSGAEVKKPGASVKVSCKASGYTLTRYWMQWVRQAPGQGLEWMGAIYPGDGDTRYSQKFQGRVTMTADTSISTAYMELSSLRSEDTAVYYCAFPDGYYAAPYGMDYWGQGTLVTVSS VL: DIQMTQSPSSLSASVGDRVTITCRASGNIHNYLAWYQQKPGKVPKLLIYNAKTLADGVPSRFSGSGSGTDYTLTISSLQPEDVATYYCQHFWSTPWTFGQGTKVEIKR
Found: 5.9e-05
